Where do the numbers come from? From the supplement of paper PMC10627819.

System: B. subtilis 168
Experiment: Bliss interaction score (quartile over a dose matrix) (fitness difference); higher = more antagonism (negative = synergy);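 further: first quartile when negative (synergy) and third quartile when positive (antagonism)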
Kindly state Bliss interaction score for each of the entries shown.
Reply with just the number.

Qu. Any idea what Bliss interaction score was measured for C[n+]1ccc(-c2cc[n+](C)cc2)cc1 [Paraquat] + Cn1nnc(-c2ccc(-c3ccc(N4C[C@H](CO)OC4=O)cc3F)cn2)n1 [Tedizolid] ?
Ans. 0.075

Qu. Any idea what Bliss interaction score was measured for C[n+]1ccc(-c2cc[n+](C)cc2)cc1 [Paraquat] + CO[C@H]1/C=C/O[C@@]2(C)Oc3c(C)c(O)c4c(O)c(c(/C=N/N5CCN(C)CC5)c(O)c4c3C2=O)NC(=O)/C(C)=C\C=C\[C@H](C)[C@H](O)[C@@H](C)[C@@H](O)[C@@H](C)[C@H](OC(C)=O)[C@@H]1C [Rifampicin] ?
Ans. 0.0618

Qu. Any idea what Bliss interaction score was measured for C[n+]1ccc(-c2cc[n+](C)cc2)cc1 [Paraquat] + CN(C)c1cc(NC(=O)CNC(C)(C)C)c(O)c2c1C[C@H]1C[C@H]3[C@H](N(C)C)C(O)=C(C(N)=O)C(=O)[C@@]3(O)C(O)=C1C2=O [Tigecycline] ?
Ans. -0.0331

Qu. Any idea what Bliss interaction score was measured for Cc1onc(-c2ccccc2)c1C(=O)N[C@@H]1C(=O)N2[C@@H]1SC(C)(C)[C@@H]2C(=O)O [Oxacillin] + CN(N=O)C(=O)N[C@@H](C=O)[C@@H](O)[C@H](O)[C@H](O)CO [Streptozotocin] ?
Ans. 0.0537

---

Test system: S. pneumoniae D39V
Test: Bliss interaction score (quartile over a dose matrix) (fitness difference); higher = more antagonism (negative = synergy)
Details: main component drawn
READOUT: Bliss interaction score
Reply with just the number.

Qu. Any idea what Bliss interaction score was measured for CNC(C)C1CCC(N)C(OC2C(N)CC(N)C(OC3OCC(C)(O)C(NC)C3O)C2O)O1 (stereo not drawn) [Gentamicin] + CCN(CC)CCOC(=O)c1ccc(N)cc1 [Procaine] ?
Ans. 0.099

Qu. Any idea what Bliss interaction score was measured for CNC(C)C1CCC(N)C(OC2C(N)CC(N)C(OC3OCC(C)(O)C(NC)C3O)C2O)O1 (stereo not drawn) [Gentamicin] + COc1cc(Cc2cnc(N)nc2N)cc(OC)c1OC [Trimethoprim] ?
Ans. -0.193

Qu. Any idea what Bliss interaction score was measured for CNC(C)C1CCC(N)C(OC2C(N)CC(N)C(OC3OCC(C)(O)C(NC)C3O)C2O)O1 (stereo not drawn) [Gentamicin] + CN(C)C(=O)C(CCN1CCC(O)(c2ccc(Cl)cc2)CC1)(c1ccccc1)c1ccccc1 [Loperamide] ?
Ans. 0.0792

---

Kindly state Bliss interaction score for each of the entries shown.
Test system: B. subtilis 168
Experiment: Bliss interaction score (quartile over a dose matrix) (fitness difference); higher = more antagonism (negative = synergy)
Reply with just the number.

Qu. Any idea what Bliss interaction score was measured for CC[C@H]1OC(=O)[C@H](C)[C@@H](O[C@H]2C[C@@](C)(OC)[C@@H](O)[C@H](C)O2)[C@H](C)[C@@H](O[C@@H]2O[C@H](C)C[C@H](N(C)C)[C@H]2O)[C@](C)(O)C[C@@H](C)CN(C)[C@H](C)[C@@H](O)[C@]1(C)O [Azithromycin] + CC[C@H]1OC(=O)[C@H](C)[C@@H](O[C@H]2C[C@@](C)(OC)[C@@H](O)[C@H](C)O2)[C@H](C)[C@@H](O[C@@H]2O[C@H](C)C[C@H](N(C)C)[C@H]2O)[C@](C)(O)C[C@@H](C)C(=O)[C@H](C)[C@@H](O)[C@]1(C)O [Erythromycin] ?
Ans. -0.0754

Qu. Any idea what Bliss interaction score was measured for CC1=C(C(=O)O)N2C(=O)[C@@H](NC(=O)[C@H](N)c3ccccc3)[C@H]2SC1 [Cephalexin] + CC(=O)O[C@H]1C[C@@]2(C)[C@@H](C[C@@H](O)[C@H]3[C@@]4(C)CC[C@@H](O)[C@@H](C)[C@@H]4CC[C@@]32C)/C1=C(\CCC=C(C)C)C(=O)O [Fusidic acid] ?
Ans. 0.0683

Qu. Any idea what Bliss interaction score was measured for O=C(O)[C@H]1/C(=C/CO)O[C@@H]2CC(=O)N21 [Clavulanic] + Cc1ncc([N+](=O)[O-])n1CCO [Metronidazole] ?
Ans. 0.0385

Qu. Any idea what Bliss interaction score was measured for Cn1c2cccc(=O)c-2nc2ccccc21 [Pyocyanin] + CN[C@@H]1[C@H](O[C@H]2[C@H](O[C@H]3[C@H](O)[C@@H](O)[C@H](N=C(N)N)[C@@H](O)[C@@H]3N=C(N)N)O[C@@H](C)[C@]2(O)C=O)O[C@@H](CO)[C@H](O)[C@H]1O [Streptomycin] ?
Ans. 0.474

Qu. Any idea what Bliss interaction score was measured for C[n+]1ccc(-c2cc[n+](C)cc2)cc1 [Paraquat] + COc1ccc(C[C@H](N)C(=O)N[C@H]2[C@@H](O)[C@H](n3cnc4c(N(C)C)ncnc43)O[C@@H]2CO)cc1 [Puromycin] ?
Ans. 0.0238

Qu. Any idea what Bliss interaction score was measured for O=C(O)[C@H]1/C(=C/CO)O[C@@H]2CC(=O)N21 [Clavulanic] + CC[C@H]1OC(=O)[C@H](C)[C@@H](O[C@H]2C[C@@](C)(OC)[C@@H](O)[C@H](C)O2)[C@H](C)[C@@H](O[C@@H]2O[C@H](C)C[C@H](N(C)C)[C@H]2O)[C@](C)(O)C[C@@H](C)C(=O)[C@H](C)[C@@H](O)[C@]1(C)O [Erythromycin] ?
Ans. 0.0508

Qu. Any idea what Bliss interaction score was measured for Oc1cc(Cl)ccc1Oc1ccc(Cl)cc1Cl [Triclosan] + COc1cc(Cc2cnc(N)nc2N)cc(OC)c1OC [Trimethoprim] ?
Ans. 0.13

Qu. Any idea what Bliss interaction score was measured for O=C(O)[C@H]1/C(=C/CO)O[C@@H]2CC(=O)N21 [Clavulanic] + O=C(O[C@@H]1Cc2c(O)cc(O)cc2O[C@@H]1c1cc(O)c(O)c(O)c1)c1cc(O)c(O)c(O)c1 [EGCG] ?
Ans. -0.0667

Qu. Any idea what Bliss interaction score was measured for O=C(O)[C@H]1/C(=C/CO)O[C@@H]2CC(=O)N21 [Clavulanic] + CN1C2=CC=CC=C2N=C3C1=CC=CC3=O [Pyocyanin] ?
Ans. 0.0338

Qu. Any idea what Bliss interaction score was measured for O=C(O)[C@H]1/C(=C/CO)O[C@@H]2CC(=O)N21 [Clavulanic] + N[C@@H]1CONC1=O [CycloserineD] ?
Ans. 0.0614

Qu. Any idea what Bliss interaction score was measured for Cc1onc(-c2ccccc2)c1C(=O)N[C@@H]1C(=O)N2[C@@H]1SC(C)(C)[C@@H]2C(=O)O [Oxacillin] + C[n+]1ccc(-c2cc[n+](C)cc2)cc1 [Paraquat] ?
Ans. -0.0872

Qu. Any idea what Bliss interaction score was measured for Cc1onc(-c2ccccc2)c1C(=O)N[C@@H]1C(=O)N2[C@@H]1SC(C)(C)[C@@H]2C(=O)O [Oxacillin] + CO[C@H]1/C=C/O[C@@]2(C)Oc3c(C)c(O)c4c(O)c(c(/C=N/N5CCN(C)CC5)c(O)c4c3C2=O)NC(=O)/C(C)=C\C=C\[C@H](C)[C@H](O)[C@@H](C)[C@@H](O)[C@@H](C)[C@H](OC(C)=O)[C@@H]1C [Rifampicin] ?
Ans. 0.0578

Qu. Any idea what Bliss interaction score was measured for CC1=C(C(=O)O)N2C(=O)[C@@H](NC(=O)[C@H](N)c3ccccc3)[C@H]2SC1 [Cephalexin] + CN(C)[C@@H]1C(O)=C(C(N)=O)C(=O)[C@@]2(O)C(O)=C3C(=O)c4c(O)ccc(Cl)c4[C@@](C)(O)[C@H]3C[C@@H]12 [Clortetracycline] ?
Ans. 0.0862

Qu. Any idea what Bliss interaction score was measured for Clc1ccc(COC(Cn2ccnc2)c2ccc(Cl)cc2Cl)c(Cl)c1 (configuration not stated) [Miconazole] + Cc1onc(-c2ccccc2)c1C(=O)N[C@@H]1C(=O)N2[C@@H]1SC(C)(C)[C@@H]2C(=O)O [Oxacillin] ?
Ans. 0.0802

Qu. Any idea what Bliss interaction score was measured for CC1=C(C(=O)O)N2C(=O)[C@@H](NC(=O)[C@H](N)c3ccccc3)[C@H]2SC1 [Cephalexin] + Cc1ncc([N+](=O)[O-])n1CCO [Metronidazole] ?
Ans. -0.0395

Qu. Any idea what Bliss interaction score was measured for Cc1onc(-c2ccccc2)c1C(=O)N[C@@H]1C(=O)N2[C@@H]1SC(C)(C)[C@@H]2C(=O)O [Oxacillin] + CC[C@H]1OC(=O)[C@H](C)C(=O)[C@H](C)[C@@H](O[C@@H]2O[C@H](C)C[C@H](N(C)C)[C@H]2O)[C@](C)(OC)C[C@@H](C)C(=O)[C@H](C)[C@H]2N(CCCCn3cnc(-c4cccnc4)c3)C(=O)O[C@]12C [Telithromycin] ?
Ans. -0.0301

Qu. Any idea what Bliss interaction score was measured for CC1=C(C(=O)O)N2C(=O)[C@@H](NC(=O)[C@H](N)c3ccccc3)[C@H]2SC1 [Cephalexin] + COc1cc(Cc2cnc(N)nc2N)cc(OC)c1OC [Trimethoprim] ?
Ans. 0.113
